Just for reference, ChEMBL document CHEMBL1127833 is where these values come from.

Entries with reported pKi on UniProt P25103
Sequence (P25103 whole entry): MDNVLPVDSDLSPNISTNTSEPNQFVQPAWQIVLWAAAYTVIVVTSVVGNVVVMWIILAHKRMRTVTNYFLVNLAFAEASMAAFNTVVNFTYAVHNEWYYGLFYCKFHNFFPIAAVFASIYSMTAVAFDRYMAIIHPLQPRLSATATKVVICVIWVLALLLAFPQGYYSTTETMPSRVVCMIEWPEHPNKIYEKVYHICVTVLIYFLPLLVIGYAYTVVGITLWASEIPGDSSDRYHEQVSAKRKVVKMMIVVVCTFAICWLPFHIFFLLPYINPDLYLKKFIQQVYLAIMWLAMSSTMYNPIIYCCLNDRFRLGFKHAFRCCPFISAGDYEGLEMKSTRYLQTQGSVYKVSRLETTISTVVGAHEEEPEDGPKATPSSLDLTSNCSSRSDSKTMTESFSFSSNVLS
pKi: −log10 of the molar value.
measured-parameter: pKi

P. COc1ccc(C(O)C2NC(=O)CNC(=O)[C@H](C(C)C)NC(=O)CNC(=O)[C@@H]3CCCN3C(=O)[C@@H](Cc3c[nH]c4ccccc34)NC(=O)CNC2=O)cc1 (some centres undefined)
Q. COc1ccc(C(O)C2NC(=O)CNC(=O)[C@H](C(C)C)NC(=O)CNC(=O)[C@@H]3CCCN3C(=O)[C@@H](Cc3c[nH]c4ccccc34)NC(=O)CNC2=O)cc1CC=C(C)C (some centres undefined)
Select the item with the higher value of pKi from the options P and Q listed. Pick one and reply with its label.
Q
(Q: 6.92, P: 4.74)

---

species: Cavia porcellus; experiment: substance P induced guinea pig ileum
measured-parameter: pA2
Lab note: jot the number down without any unit.

Reported pA2, compound CC(C)=CCc1cc(C(O)C2NC(=O)CNC(=O)[C@H](C(C)C)NC(=O)CNC(=O)[C@@H]3CCCN3C(=O)[C@@H](Cc3c[nH]c4ccccc34)NC(=O)CNC2=O)ccc1O (stereo partly specified) : ____
5.23

---

Parameter: Ki. Scope: all listed entries.
Protein target, amino acids: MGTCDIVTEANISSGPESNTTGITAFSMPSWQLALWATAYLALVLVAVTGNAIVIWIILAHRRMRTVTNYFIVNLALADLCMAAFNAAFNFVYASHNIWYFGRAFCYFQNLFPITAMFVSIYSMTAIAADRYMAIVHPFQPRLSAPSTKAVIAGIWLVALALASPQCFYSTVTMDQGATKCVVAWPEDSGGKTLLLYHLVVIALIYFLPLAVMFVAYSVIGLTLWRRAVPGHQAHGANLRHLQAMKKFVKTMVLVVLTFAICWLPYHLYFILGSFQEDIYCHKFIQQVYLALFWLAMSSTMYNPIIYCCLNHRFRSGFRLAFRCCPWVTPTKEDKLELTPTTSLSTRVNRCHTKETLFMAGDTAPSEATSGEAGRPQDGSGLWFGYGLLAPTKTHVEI

As a guide, the following entries are already answered.
{"columns": ["compound", "Ki"],
 "data": [
  ["COc1ccc(C(O)C2NC(=O)CNC(=O)[C@H](C(C)C)NC(=O)CNC(=O)[C@@H]3CCCN3C(=O)[C@@H](Cc3c[nH]c4ccccc34)NC(=O)CNC2=O)cc1 (stereo partly drawn)", "33 µM"],
  ["CC(C)[C@@H]1NC(=O)CNC(=O)[C@@H]2CCCN2C(=O)[C@@H](Cc2c[nH]c3ccccc23)NC(=O)CNC(=O)[C@H](Cc2ccc(O)cc2)NC(=O)CNC1=O", "> 100 µM"]
]}

--- query ---
Reported Ki, compound CC(C)[C@@H]1NC(=O)CNC(=O)[C@@H]2CCCN2C(=O)[C@@H](Cc2c[nH]c3ccccc23)NC(=O)CNC(=O)C(C(O)c2ccc(O)cc2)NC(=O)CNC1=O (stereo partly drawn) : ____
> 100 µM

---

Target: Substance-K receptor (Homo sapiens, UniProt P21452)
Sequence (P21452 whole entry): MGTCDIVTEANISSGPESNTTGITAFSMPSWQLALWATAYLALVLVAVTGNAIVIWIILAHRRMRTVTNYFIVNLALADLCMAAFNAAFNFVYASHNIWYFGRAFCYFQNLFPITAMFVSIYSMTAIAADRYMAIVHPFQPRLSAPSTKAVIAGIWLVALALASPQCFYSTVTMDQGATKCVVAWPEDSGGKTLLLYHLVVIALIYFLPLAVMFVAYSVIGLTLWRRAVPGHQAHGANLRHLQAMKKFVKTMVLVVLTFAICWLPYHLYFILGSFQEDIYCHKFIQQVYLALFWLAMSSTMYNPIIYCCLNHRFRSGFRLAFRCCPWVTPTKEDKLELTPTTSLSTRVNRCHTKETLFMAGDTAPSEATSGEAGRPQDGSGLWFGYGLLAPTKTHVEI
measured-parameter: Ki (µM)

A. COc1ccc(C(O)C2NC(=O)CNC(=O)[C@H](C(C)C)NC(=O)CNC(=O)[C@@H]3CCCN3C(=O)[C@@H](Cc3c[nH]c4ccccc34)NC(=O)CNC2=O)cc1CC=C(C)C (stereo partly drawn)
B. COc1ccc(CC2NC(=O)CNC(=O)[C@H](C(C)C)NC(=O)CNC(=O)[C@@H]3CCCN3C(=O)[C@@H](Cc3c[nH]c4ccccc34)NC(=O)CNC2=O)cc1 (stereo partly drawn)
C. CC(C)[C@@H]1NC(=O)CNC(=O)[C@@H]2CCCN2C(=O)C(Cc2c[nH]c3ccccc23)NC(=O)CNC(=O)[C@H](Cc2ccc(OC(C)(C)C)cc2)NC(=O)CNC1=O (single isomer, unassigned)
// sort entries: Ki, high to low Lab note: record answer as labels in requested order.
B, C, A
